B1: RTP4 (parent)
chain: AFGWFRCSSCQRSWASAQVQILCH

Variants of: B1
assay.method.text: protein stability index of a GFP-peptide fusion (GPS, HEK-293T) (PSI 1-6); higher = more stable;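 note: lentivirally expressed fusions sorted by FACS into six bins by GFP to DsRed ratio, PSI derived from sequencing read proportions per bin multiplied by bin number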
condition.notes: c terminus: a fixed tail appended
Lab note: anything with protein stability index at or over 2 counts as class 1; the rest go in class 0.

variant.identifier | classification
L22A | class 1
S9V | class 0
V19Q | class 0
C7S | class 1
R12Q | class 1
C23E | class 1
G3D | class 0
W14V | class 0
G3A | class 1
S13R | class 1
S9K | class 0
